Read-out: ABC Transporter (ABCC3), ABCC3 (gene 8714)
Experiment: LTEA_HepaRG_ABCC3: Life Technologies and Expression Analysis (LTEA) Assay for ABC Transporter (ABCC3) using HepaRG (AID 2283462)
Conditions: mRNA level, 48 h; actives raise or lower the signal
Procedure: LTEA_HepaRG is a cell based, multiplexed-readout assay that uses HepaRG, a human liver cell line, with measurements taken at 48 hours after chemical dosing on a 96-well plate.LTEA_HepaRG_ABCC3 is one of 102 assay component(s) measured in the LTEA HepaRG cell culture assay. It is a marker of NR mediated transport.Data from the assay component LTEA_HepaRG_ABCC3 was analyzed into 1 endpoint. […]
Calls of active or inactive are those of the source. Rule for the calls: active = hit-call score of the fitted dose curve at least 0.9, where 1 is the maximum; inactive = score below 0.9.
READOUT: AC50

CC(C)(C)OOC(C)(C)C ... inactive
O=C(O)C(Cl)Cl ... inactive
CCCCCCCc1ccc(O)cc1 ... inactive
CCOc1ccc(C(C)(C)COCc2cccc(Oc3ccccc3)c2)cc1 ... inactive
[N-]=[N+]=[N-] ... 69.3 µM (active)
CN(C)C(=O)Cl ... inactive
COCCOCCO ... inactive
c1ccc2c(c1)Nc1ccccc1S2 ... inactive
Cc1ccc([N+](=O)[O-])cc1C ... inactive
Nc1ccc2ccccc2c1 ... inactive
c1nc[nH]n1 ... inactive
CCOP(=S)(Oc1ccc([N+](=O)[O-])cc1)c1ccccc1 (stereo unspecified) ... inactive
CC(Cc1ccc(OCC(=O)O)cc1)NCC(O)c1csc(C(F)(F)F)n1 (stereo unspecified) ... inactive
O=P(Oc1ccccc1)(Oc1ccccc1)Oc1ccccc1 ... inactive
CCCCc1ccccc1 ... inactive
CCOC(=O)c1ccccc1C(=O)OCC ... inactive
CCOP(=S)(OCC)SCSCC ... inactive
CCCCN(CCCC)SN(C)C(=O)Oc1cccc2c1OC(C)(C)C2 ... inactive
CCC(C)(C)c1ccc(O)cc1 ... inactive
CC(Cl)(Cl)C(=O)O ... inactive
O=P1(N(CCCl)CCCl)NCCCO1 (stereo unspecified) ... inactive
Nc1cc2c3c(c1)C(c1ccccc1)=N[C@@H](NC(=O)c1cccnc1)C(=O)N3CC2 ... inactive
CSC(C)(C)C=NO ... inactive
ClC1=C(Cl)C2(Cl)C3C(Cl)C(Cl)CC3C1(Cl)C2(Cl)Cl (stereo unspecified) ... inactive
OCC1CO1 (stereo unspecified) ... inactive
Cc1cccc(N)c1 ... inactive
c1ccc(OP(Oc2ccccc2)Oc2ccccc2)cc1 ... inactive
CCN(CC)c1ccccc1 ... inactive
Cc1ccc(O)cc1C ... inactive
CCCCN(CCCC)N=O ... inactive
Nc1ccc(Cl)cc1 ... inactive
